Reported relative viability values for the following molecules.
- Tested on: NCI-H3122
- PROTOCOL_NOTES: relative viability (nuclei count vs DMSO), 5 days (fraction); higher = more cells survive
- TEST_CONDITIONS: first compound 0.8 µM
Please respond with just the number, no unit label.

Answered cases to consult:
COc1nc(C)cnc1NS(=O)(=O)c1cccnc1-c1ccc(-c2nnco2)cc1 [Zibotentan] + CC(C)C[C@H](NC(=O)[C@H](Cc1ccccc1)NC(=O)c1cnccn1)B(O)O [Bortezomib] (partner 0.002 µM) :: 0.992
O=c1cc(-c2cccc3c2Sc2ccccc2S3)oc(N2CCOCC2)c1 + Cc1cc(Nc2cc(N3CCN(C)CC3)nc(Sc3ccc(NC(=O)C4CC4)cc3)n2)n[nH]1 [Tozasertib] (partner 0.1 µM) :: 0.355
O=c1cc(-c2cccc3c2Sc2ccccc2S3)oc(N2CCOCC2)c1 + C[C@]1(O)C[C@@H](c2nc(-c3ccc4ccc(-c5ccccc5)nc4c3)c3c(N)nccn32)C1 [Linsitinib] (partner 1 µM) :: 1.06

COc1nc(C)cnc1NS(=O)(=O)c1cccnc1-c1ccc(-c2nnco2)cc1 [Zibotentan] + CCNC(=O)c1noc(-c2cc(C(C)C)c(O)cc2O)c1-c1ccc(CN2CCOCC2)cc1 [Luminespib] (partner 0.01 µM) yielded relative viability of 0.0537

* * *

- Test system: A-427
- PROTOCOL_NOTES: relative viability (nuclei count vs DMSO), 5 days (fraction); higher = more cells survive
- TEST_CONDITIONS: first compound 0.6325 µM
In this section, each of the molecules is paired with its reported relative viability.
Answer with a number only.

Recorded relative viability, per entry:
COCC1(CO)C(=O)C2CCN1CC2 (configuration not stated) [PRIMA-1MET] + CS(=O)(=O)N1CCN(Cc2cc3nc(-c4cccc5[nH]ncc45)nc(N4CCOCC4)c3s2)CC1 [Pictilisib] (partner 1 µM) :: 0.53
COCC1(CO)C(=O)C2CCN1CC2 (configuration not stated) [PRIMA-1MET] + COc1cc2c(Oc3ccc(NC(=O)C4(C(=O)Nc5ccc(F)cc5)CC4)cc3F)ccnc2cc1OCCCN1CCOCC1 [Foretinib] (partner 0.25 µM) :: 0.837
COCC1(CO)C(=O)C2CCN1CC2 (configuration not stated) [PRIMA-1MET] + Nc1nc2[nH]cc(CCc3ccc(C(=O)N[C@@H](CCC(=O)O)C(=O)O)cc3)c2c(=O)[nH]1 [Pemetrexed] (partner 0.2 µM) :: 0.92
COCC1(CO)C(=O)C2CCN1CC2 (configuration not stated) [PRIMA-1MET] + CC(=O)c1c(C)c2cnc(Nc3ccc(N4CCNCC4)cn3)nc2n(C2CCCC2)c1=O [Palbociclib] (partner 0.5 µM) :: 0.523
COCC1(CO)C(=O)C2CCN1CC2 (configuration not stated) [PRIMA-1MET] + C[C@]1(O)C[C@@H](c2nc(-c3ccc4ccc(-c5ccccc5)nc4c3)c3c(N)nccn32)C1 [Linsitinib] (partner 1 µM) :: 0.703

Sample COCC1(CO)C(=O)C2CCN1CC2 (configuration not stated) [PRIMA-1MET] + CC(C)C[C@H](NC(=O)[C@H](Cc1ccccc1)NC(=O)c1cnccn1)B(O)O [Bortezomib] (partner 0.002 µM) , system: A-427. Its relative viability is 0.881

Log: A-427, molecule COCC1(CO)C(=O)C2CCN1CC2 (configuration not stated) [PRIMA-1MET] + CS(=O)(=O)CCNCc1ccc(-c2ccc3ncnc(Nc4ccc(OCc5cccc(F)c5)c(Cl)c4)c3c2)o1 [Lapatinib] (partner 2 µM) , relative viability = 0.849

* * *

- Test system: NCI-H2170
- PROTOCOL_NOTES: relative viability (nuclei count vs DMSO), 5 days (fraction); higher = more cells survive
- TEST_CONDITIONS: first compound 20 µM
Doc: threshold 0.6 (exclusive). Items with relative viability beneath it return Satisfied; others return Not satisfied.

Use the examples below as a reference point.
COCC1(CO)C(=O)C2CCN1CC2 (stereo unspecified) [PRIMA-1MET] + Cc1nc(NC(=O)N2CCC[C@H]2C(N)=O)sc1-c1ccnc(C(C)(C)C(F)(F)F)c1 [Alpelisib] (partner 2 µM) :: Not satisfied
COCC1(CO)C(=O)C2CCN1CC2 (stereo unspecified) [PRIMA-1MET] + CC(=O)Nc1cccc(-n2c(=O)n(C3CC3)c(=O)c3c(Nc4ccc(I)cc4F)n(C)c(=O)c(C)c32)c1 [Trametinib] (partner 0.02 µM) :: Not satisfied
COCC1(CO)C(=O)C2CCN1CC2 (stereo unspecified) [PRIMA-1MET] + CC(=O)c1c(C)c2cnc(Nc3ccc(N4CCNCC4)cn3)nc2n(C2CCCC2)c1=O [Palbociclib] (partner 0.5 µM) :: Satisfied
COCC1(CO)C(=O)C2CCN1CC2 (stereo unspecified) [PRIMA-1MET] + Nc1ncn([C@H]2C[C@H](O)[C@@H](CO)O2)c(=O)n1 [Decitabine] (partner 2 µM) :: Satisfied

Turning to the following compound.
Enquiry: Is the reported relative viability for COCC1(CO)C(=O)C2CCN1CC2 (stereo unspecified) [PRIMA-1MET] + COc1cccc2cc(-c3nc([C@H]4CC[C@H](C(=O)O)CC4)n4ncnc(N)c34)[nH]c12 [OSI-027] (partner 0.5 µM) strictly below 0.6?
Return: Not satisfied

* * *

- Test system: NCI-H1975
- PROTOCOL_NOTES: relative viability (nuclei count vs DMSO), 5 days (fraction); higher = more cells survive
- TEST_CONDITIONS: first compound 0.01 µM
MEASURED_PROPERTY: relative viability
Give your answer as a number; write no unit.

Some compounds with known relative viability results, for comparison:
CCN(CC)CCCCNc1ncc2cc(-c3cc(OC)cc(OC)c3)c(NC(=O)NC(C)(C)C)nc2n1 + CC(=O)Nc1cccc(-n2c(=O)n(C3CC3)c(=O)c3c(Nc4ccc(I)cc4F)n(C)c(=O)c(C)c32)c1 [Trametinib] (partner 0.02 µM) :: 0.328
CCN(CC)CCCCNc1ncc2cc(-c3cc(OC)cc(OC)c3)c(NC(=O)NC(C)(C)C)nc2n1 + Cc1cc(Nc2cc(N3CCN(C)CC3)nc(Sc3ccc(NC(=O)C4CC4)cc3)n2)n[nH]1 [Tozasertib] (partner 0.1 µM) :: 0.876
CCN(CC)CCCCNc1ncc2cc(-c3cc(OC)cc(OC)c3)c(NC(=O)NC(C)(C)C)nc2n1 + Cc1nc(NC(=O)N2CCC[C@H]2C(N)=O)sc1-c1ccnc(C(C)(C)C(F)(F)F)c1 [Alpelisib] (partner 2 µM) :: 0.699
CCN(CC)CCCCNc1ncc2cc(-c3cc(OC)cc(OC)c3)c(NC(=O)NC(C)(C)C)nc2n1 + O=C(c1cc(Cc2n[nH]c(=O)c3ccccc23)ccc1F)N1CCN(C(=O)C2CC2)CC1 [Olaparib] (partner 8 µM) :: 0.85
O=c1cc(N2CCOCC2)oc2c(-c3cccc4c3sc3ccccc34)cccc12 + C[C@]1(O)C[C@@H](c2nc(-c3ccc4ccc(-c5ccccc5)nc4c3)c3c(N)nccn32)C1 [Linsitinib] (partner 1 µM) :: 0.833

The value of relative viability measured for the compound O=c1cc(N2CCOCC2)oc2c(-c3cccc4c3sc3ccccc34)cccc12 + Nc1ncn([C@H]2C[C@H](O)[C@@H](CO)O2)c(=O)n1 [Decitabine] (partner 2 µM) turned out to be 0.438

* * *

- System: 201T
- PROTOCOL_NOTES: relative viability (nuclei count vs DMSO), 5 days (fraction); higher = more cells survive
- TEST_CONDITIONS: first compound 8 µM
MEASURED_PROPERTY: relative viability
The answer should be a number; do not append a unit.

Examples with their reported relative viability follow.
O=c1cc(-c2cccc3c2Sc2ccccc2S3)oc(N2CCOCC2)c1 + O=C(CCCCCCC(=O)Nc1ccccc1)NO [Vorinostat] (partner 1 µM) :: 0.884
O=c1cc(-c2cccc3c2Sc2ccccc2S3)oc(N2CCOCC2)c1 + CCNC(=O)c1noc(-c2cc(C(C)C)c(O)cc2O)c1-c1ccc(CN2CCOCC2)cc1 [Luminespib] (partner 0.01 µM) :: 0.969
O=c1cc(-c2cccc3c2Sc2ccccc2S3)oc(N2CCOCC2)c1 + CS(=O)(=O)CCNCc1ccc(-c2ccc3ncnc(Nc4ccc(OCc5cccc(F)c5)c(Cl)c4)c3c2)o1 [Lapatinib] (partner 2 µM) :: 1
O=c1cc(-c2cccc3c2Sc2ccccc2S3)oc(N2CCOCC2)c1 + CC(=O)Nc1cccc(-n2c(=O)n(C3CC3)c(=O)c3c(Nc4ccc(I)cc4F)n(C)c(=O)c(C)c32)c1 [Trametinib] (partner 0.02 µM) :: 0.686
O=c1cc(-c2cccc3c2Sc2ccccc2S3)oc(N2CCOCC2)c1 + C[C@]1(O)C[C@@H](c2nc(-c3ccc4ccc(-c5ccccc5)nc4c3)c3c(N)nccn32)C1 [Linsitinib] (partner 1 µM) :: 0.986

# next compound below
relative viability reported for this compound O=c1cc(-c2cccc3c2Sc2ccccc2S3)oc(N2CCOCC2)c1 + Cc1cc(Nc2cc(N3CCN(C)CC3)nc(Sc3ccc(NC(=O)C4CC4)cc3)n2)n[nH]1 [Tozasertib] (partner 0.1 µM) : 0.753
